# TEST_DESCRIPTION: chemical genetic growth profiling, strain panel (AID 1159580);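 note: tested at 20 µM; growth read once vehicle control cultures reached saturation at 30 °C; 1 = growth at the plate median or of vehicle wells; lower values mean less growth of the strain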
# CONDITION_DETAILS: S. cerevisiae deletion strains, growth OD, locus YLR262C, strain YPT6, active compounds read low
The campaign covered roughly 5,500 compounds. About 2,000 (36%) were called active. Inconclusive results (about 18%) are left out. The list shows a part of the results.
Reported normalized growth is given for each of the following compounds.
Please reply with the number alone, leaving off any unit.

// worked examples, normalized growth included
                                   compound  observed_result
0  COC(=O)c1c(C)c2c(c(C)c1O)OC(=O)c1c(C)c(Cl)c(O)c(Cl)c1O2            0.865
1  CC12CCC(=O)C=C1CCC1C2[C@@H](O)CC2(C)C1CC[C@]2(O)C(=O)COP(=O)(O)O (stereo partly drawn)             1.06

Pending compound:
Please list normalized growth recorded for the compound COC(=O)c1c(OC)cc2c(c1C)Oc1c(Cl)c(OC(C)=O)c(Cl)c(C)c1C(=O)O2 1.03
